Overview of recorded pKd for various binders
target: T1, RSV postfusion F (postF), subtype A (respiratory syncytial virus subtype A, UniProt P03420 26-513); assay: BLI, IgG
T1 construct: also called Postfusion subtype A; F deltaFP
pKd field: float, defined as -log10 of concentration (mol/L).

{"columns": ["binder", "observed-value"],
 "data": [
  ["ADI-22775 (antibody, V domains shown, full-length IgG) VH: EVQLLESGGGVVQPGRSLRLSCAASGFTFSDYGMHWVRQAPGKGLEWVAVIWYDGSYKYYADSVKGRFTISRDNSKNTLFLQMNSLRAEDTAVYYCARESLQTHDAFDIWGQGTMVTVSS VL: DIQMTQSPSSLSASVGDRVTITCRASQGISNSLAWYQQKPGKAPKLLLYAASRLESGVPSRFSGSGSGTDYTLTINSLQPEDFATYFCQQYYSTLTWTFGQGTKVDIK", 7.52]
]}

q: Could you share which pKd value was measured for ADI-14342 (antibody, V domains shown, full-length IgG; also called Ab 10) VH: QVTLKESGPVLVKPTETLTLTCTVSGFSLSNAKMGVSWIRQPPGKALEWLAYISSNDEKSYSTSLKSRLTISKDTSKSQVVLTMTNMDPVDTATYYCARILLYDSSGYYLWYFDLWGRGTLVTVSS VL: DIQVTQSPSSLSASVGDRVTITCRASQRITSYLNWYQHKPGKAPKLLIFAASSLHSGVPSTFSGSGSGTDFTLTISSLQPEDFATYYCQQSYSTPWTFGQGTKVEIK ?
a: 9.31

q: Could you share which pKd value was measured for ADI-14371 (antibody, V domains shown, full-length IgG; also called Ab 39) VH: EVQLVESGGGLVQPGGSLRLSCAASGFTFSNYAMTWVRQAPGKGLEWLSSISGSGGSTYYADSVKGRFTISRDNSRNTLYVQMNSLRVEDTAFYYCAKAFYEYGAGSPGDYWGQGTLVTVSS VL: DIQLTQSPSSLSASVGDRVTITCRASQSIGTNLNWYQQKPGKAPKFLIYAASSLQRGVPSRFSGSGSGSEFTLTISSLQPEDFATYYCQQSYSTLPITFGQGTKLEIK ?
a: 8.91

q: Could you share which pKd value was measured for ADI-14339 (antibody, V domains shown, full-length IgG; also called Ab 7) VH: QVQLVESGGGVLQPGRSLRLPCEASGFTFNKYAMHWVRQAPGKGLEWVAAVSYDGGNKFYAESVKGRFTISRDNSKNTLYLQMNSLKPEDTAVYYCARDRWELLHGLDYWGLGTLVTVSS VL: SYELTQPPSVSVSPGQTARITCSGEALAKQYAYWYQQKPGQAPVLVIYKDNERPSGISERFSGSSSGTTVTLTISGVQAEDEADYYCQSADSSGTYVFGTGTKVTVL ?
a: 9.36

q: Could you share which pKd value was measured for ADI-22763 (antibody, V domains shown, full-length IgG) VH: EVQLVESGGGLIQPGGSLRLSCAASGFTFSTYEMNWVRQAPGKGLEWVSSISTSGSTKDYAGSVKGRFTVSRDNAKNSLYLQMNSLRAEDTAIYYCARVYYYDSSGYYLALFDYWGQGTLVTVSS VL: EIVLTQSPSSLSASVGDRVTITCRASQSIASYLNWYQQKPGKAPKLLIYAASSLRSGVPSRFSGSGSGTDFTLTISSLQPEDFATYYCQQSYSTPSLTFGGGTKLEIK ?
a: 9.50
